- Tested on: K98450-129-R-PDC multicell spheroids, viability
- assayComment: Anticancer human tumor K98450-129-R-PDC patient-derived colon adenocarcinoma cell line growth inhibition [PI3K]
- testSettings: second compound 0.01 µM; first compound 1 µM; hits give low values
Assign viability, T/C to each entry below.
One number for each entry, in %.

molecule: CCN1CCN(Cc2ccc(Nc3ncc(F)c(-c4cc(F)c5nc(C)n(C(C)C)c5c4)n3)nc2)CC1 + CC(Nc1ccc2c(c1)OCCn1cc(N3C(=O)OCC3C(F)F)nc1-2)C(N)=O
testedSystem: K98450-129-R-PDC multicell spheroids, viability
readoutUnits: %
viability, T/C: 86.9
//
molecule: C#Cc1c(F)ccc2cc(O)cc(-c3ncc4c(N5CC6CCC(C5)N6)nc(OCC56CCCN5CC(F)C6)nc4c3F)c12 (stereo unspecified) + CC(Nc1ccc2c(c1)OCCn1cc(N3C(=O)OCC3C(F)F)nc1-2)C(N)=O
testedSystem: K98450-129-R-PDC multicell spheroids, viability
readoutUnits: %
viability, T/C: 95.2
//
molecule: CC(Cn1ccc(-c2ccc(C#N)c(Cl)c2)n1)NC(=O)c1cc(C(C)O)[nH]n1 (stereo unspecified) + CC(Nc1ccc2c(c1)OCCn1cc(N3C(=O)OCC3C(F)F)nc1-2)C(N)=O
testedSystem: K98450-129-R-PDC multicell spheroids, viability
readoutUnits: %
viability, T/C: 98.4
//
molecule: CCCS(=O)(=O)Nc1ccc(F)c(C(=O)c2c[nH]c3ncc(-c4ccc(Cl)cc4)cc23)c1F + COc1c(OCCCN2CCOCC2)ccc2c3n(c(=NC(=O)c4cnc(N)nc4)nc12)CCN3
testedSystem: K98450-129-R-PDC multicell spheroids, viability
readoutUnits: %
viability, T/C: 60.2

Answer for every listed entry: what is its viability, T/C? The entries follow.
1. Cn1ncc(Cl)c1-c1cc(C(=O)NC(CN)Cc2cccc(F)c2)sc1Cl (stereo unspecified) + COc1c(OCCCN2CCOCC2)ccc2c3n(c(=NC(=O)c4cnc(N)nc4)nc12)CCN3
2. CC(Cn1ccc(-c2ccc(C#N)c(Cl)c2)n1)NC(=O)c1cc(C(C)O)[nH]n1 (stereo unspecified) + COc1c(OCCCN2CCOCC2)ccc2c3n(c(=NC(=O)c4cnc(N)nc4)nc12)CCN3

1: 83.5; 2: 102

###

- Test system: K98450-129-R-PDC multicell spheroids, viability
- assayComment: Anticancer human tumor K98450-129-R-PDC cell line growth inhibition [PI3K];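 further: spheroids exposed to agents for seven days before read-out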
- testSettings: second compound 0.1 µM; first compound 3.16 µM; hits give low values
propertyLabel: viability, T/C (%)
Answers are plain numbers, in %.

For orientation, consider the following solved cases.
molecule: C#Cc1c(F)ccc2cc(O)cc(-c3ncc4c(N5CC6CCC(C5)N6)nc(OCC56CCCN5CC(F)C6)nc4c3F)c12 (stereo not drawn) + COc1c(OCCCN2CCOCC2)ccc2c3n(c(=NC(=O)c4cnc(N)nc4)nc12)CCN3
readoutUnits: %
viability, T/C: 75.8
--
molecule: CC1(C)CCC(Nc2ncc(C(F)(F)F)c(-c3c[nH]c4c(P(C)(C)=O)c(C#N)ccc34)n2)CN1 (stereo not drawn) + COc1c(OCCCN2CCOCC2)ccc2c3n(c(=NC(=O)c4cnc(N)nc4)nc12)CCN3
readoutUnits: %
viability, T/C: 68.7

Field: next molecule
Quick check: viability, T/C of Cn1nccc1Nc1nccc(-c2ccn(C(CO)c3ccc(Cl)c(F)c3)c(=O)c2)n1 (stereo not drawn) + CC(Nc1ccc2c(c1)OCCn1cc(N3C(=O)OCC3C(F)F)nc1-2)C(N)=O ? 98.9

###

- Test system: K98450-129-R-PDC multicell spheroids, viability
- assayComment: Anticancer human tumor K98450-129-R-PDC cell line growth inhibition [PI3K];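 further: spheroids exposed to agents for seven days before read-out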
- testSettings: second compound 1 µM; first compound 0.001 µM; hits give low values
Threshold 90%. viability, T/C below it: yes (1). viability, T/C at it or above: no (0).

Answered examples (3):
compound: CC(=O)c1c(C)c2cnc(Nc3ccc(N4CCNCC4)cn3)nc2n(C2CCCC2)c1=O + COc1c(OCCCN2CCOCC2)ccc2c3n(c(=NC(=O)c4cnc(N)nc4)nc12)CCN3
class: yes (1)
//
compound: Cn1ncnc1[C@H]1c2n[nH]c(=O)c3cc(F)cc(c23)N[C@@H]1c1ccc(F)cc1 + COc1c(OCCCN2CCOCC2)ccc2c3n(c(=NC(=O)c4cnc(N)nc4)nc12)CCN3
class: yes (1)
//
compound: Cn1ncnc1[C@H]1c2n[nH]c(=O)c3cc(F)cc(c23)N[C@@H]1c1ccc(F)cc1 + CC(Nc1ncnc2nc[nH]c12)c1cc2cccc(Cl)c2c(=O)n1-c1ccccc1
class: no (0)

Hello, is viability, T/C of the following compound strictly smaller than 90%? CC(=O)c1c(C)c2cnc(Nc3ccc(N4CCNCC4)cn3)nc2n(C2CCCC2)c1=O + CC(Nc1ccc2c(c1)OCCn1cc(N3C(=O)OCC3C(F)F)nc1-2)C(N)=O no (0)

###

- System: K98450-129-R-PDC multicell spheroids, viability
- assayComment: Anticancer human tumor K98450-129-R-PDC cell line growth inhibition [PI3K];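 further: spheroids exposed to agents for seven days before read-out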
- testSettings: second compound 1 µM; first compound 0.0316 µM; hits give low values
propertyLabel: viability, T/C (%)
Numbers only, in %.

Would you please look over these solved cases?
compound: C#Cc1c(F)ccc2cc(O)cc(-c3ncc4c(N5CC6CCC(C5)N6)nc(OCC56CCCN5CC(F)C6)nc4c3F)c12 (stereo not given) + COc1c(OCCCN2CCOCC2)ccc2c3n(c(=NC(=O)c4cnc(N)nc4)nc12)CCN3
readoutUnits: %
measured: 54.6
//
compound: C#Cc1c(F)ccc2cc(O)cc(-c3ncc4c(N5CC6CCC(C5)N6)nc(OCC56CCCN5CC(F)C6)nc4c3F)c12 (stereo not given) + CC(Nc1ncnc2nc[nH]c12)c1cc2cccc(Cl)c2c(=O)n1-c1ccccc1
readoutUnits: %
measured: 98.9
//
compound: CCCS(=O)(=O)Nc1ccc(F)c(C(=O)c2c[nH]c3ncc(-c4ccc(Cl)cc4)cc23)c1F + CC(Nc1ncnc2nc[nH]c12)c1cc2cccc(Cl)c2c(=O)n1-c1ccccc1
readoutUnits: %
measured: 97
//
compound: CCN1CCN(Cc2ccc(Nc3ncc(F)c(-c4cc(F)c5nc(C)n(C(C)C)c5c4)n3)nc2)CC1 + Cc1nc(NC(=O)N2CCCC2C(N)=O)sc1-c1ccnc(C(C)(C)C(F)(F)F)c1
readoutUnits: %
measured: 91.2

Consider the record given below.
Form field: viability, T/C recorded for CC(C)NCC(C(=O)N1CCN(c2ncnc3c2C(C)CC3O)CC1)c1ccc(Cl)cc1 (stereo not given) + CC(Nc1ccc2c(c1)OCCn1cc(N3C(=O)OCC3C(F)F)nc1-2)C(N)=O with K98450-129-R-PDC multicell spheroids, viability (enter value) 85.2

###

Answer each item with its documented viability, T/C.
- Tested on: K98450-129-R-PDC multicell spheroids, viability
- assayComment: Anticancer human tumor K98450-129-R-PDC cell line growth inhibition [PI3K];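 further: spheroids exposed to agents for seven days before read-out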
- testSettings: compound 0.00316 µM; hits give low values

compound: CCN1CCN(Cc2ccc(Nc3ncc(F)c(-c4cc(F)c5nc(C)n(C(C)C)c5c4)n3)nc2)CC1
viability, T/C: 108% [middle of 4 runs]

Would you mind giving viability, T/C for every compound in the list below?
1. CC(Nc1ccc2c(c1)OCCn1cc(N3C(=O)OCC3C(F)F)nc1-2)C(N)=O (stereo unspecified)
2. COc1c(OCCCN2CCOCC2)ccc2c3n(c(=NC(=O)c4cnc(N)nc4)nc12)CCN3
3. CC(=O)c1c(C)c2cnc(Nc3ccc(N4CCNCC4)cn3)nc2n(C2CCCC2)c1=O
4. CC(C)n1nc(-c2ccc3oc(N)nc3c2)c2c(N)ncnc21

1. 107% [middle of 8 runs]
2. 97.8% [middle of 8 runs]
3. 104% [middle of 4 runs]
4. 99.9% [middle of 4 runs]

// viability, T/C lookup, key: Cn1ncnc1[C@H]1c2n[nH]c(=O)c3cc(F)cc(c23)N[C@@H]1c1ccc(F)cc1 103% [middle of 4 runs]

###

- System: K98450-129-R-PDC multicell spheroids, viability
- assayComment: Anticancer human tumor K98450-129-R-PDC cell line growth inhibition [PI3K];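 further: spheroids exposed to agents for seven days before read-out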
- testSettings: second compound 0.0316 µM; first compound 3.16 µM; hits give low values
Kindly state viability, T/C for each of the entries shown.
One number for each entry, in %.

compound: CC1(C)CCC(Nc2ncc(C(F)(F)F)c(-c3c[nH]c4c(P(C)(C)=O)c(C#N)ccc34)n2)CN1 (stereo unspecified) + CC(Nc1ccc2c(c1)OCCn1cc(N3C(=O)OCC3C(F)F)nc1-2)C(N)=O
testedSystem: K98450-129-R-PDC multicell spheroids, viability
readoutUnits: %
viability, T/C: 69.3

compound: CC1(C)CCC(CN2CCN(c3ccc(C(=O)NS(=O)(=O)c4ccc(NCC5CCOCC5)c([N+](=O)[O-])c4)c(Oc4cnc5[nH]ccc5c4)c3)CC2)=C(c2ccc(Cl)cc2)C1 + Cc1nc(NC(=O)N2CCCC2C(N)=O)sc1-c1ccnc(C(C)(C)C(F)(F)F)c1
testedSystem: K98450-129-R-PDC multicell spheroids, viability
readoutUnits: %
viability, T/C: 98.3

compound: CC(Cn1ccc(-c2ccc(C#N)c(Cl)c2)n1)NC(=O)c1cc(C(C)O)[nH]n1 (stereo unspecified) + Cc1nc(NC(=O)N2CCCC2C(N)=O)sc1-c1ccnc(C(C)(C)C(F)(F)F)c1
testedSystem: K98450-129-R-PDC multicell spheroids, viability
readoutUnits: %
viability, T/C: 99.8

compound: CC(Cn1ccc(-c2ccc(C#N)c(Cl)c2)n1)NC(=O)c1cc(C(C)O)[nH]n1 (stereo unspecified) + CC(Nc1ccc2c(c1)OCCn1cc(N3C(=O)OCC3C(F)F)nc1-2)C(N)=O
testedSystem: K98450-129-R-PDC multicell spheroids, viability
readoutUnits: %
viability, T/C: 101

compound: Cn1nccc1Nc1nccc(-c2ccn(C(CO)c3ccc(Cl)c(F)c3)c(=O)c2)n1 (stereo unspecified) + CC(Nc1ccc2c(c1)OCCn1cc(N3C(=O)OCC3C(F)F)nc1-2)C(N)=O
testedSystem: K98450-129-R-PDC multicell spheroids, viability
readoutUnits: %
viability, T/C: 99.2

Requested read-out: viability, T/C. Entry: Cn1ncc(Cl)c1-c1cc(C(=O)NC(CN)Cc2cccc(F)c2)sc1Cl (stereo unspecified) + COc1c(OCCCN2CCOCC2)ccc2c3n(c(=NC(=O)c4cnc(N)nc4)nc12)CCN3 89
